experimentDescription: chemical genetic growth profiling, strain panel (AID 1159580);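 note: tested at 20 µM; growth read once vehicle control cultures reached saturation at 30 °C; 1 = growth at the plate median or of vehicle wells; lower values mean less growth of the strain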
testSettings: S. cerevisiae deletion strains, growth OD, locus YDR101C, strain arx1, stronger effect = lower value
In all, about 5,500 compounds went through this assay and about 2,000 (36%) were called active. Not shown: some 18% with an inconclusive outcome. The list shows a part of the results. Where a SMILES comes first, the peptide text is derived from it.
assayReadout: normalized growth

[[record]]
molecule = "NC(N)=NCCC[C@@H](NC(=O)[C@@H](N)Cc1ccc(O)cc1)C(=O)O"
observedvalue = 0.996

[[record]]
molecule = "CCN(CC)C(C)CN1c2ccccc2Sc2ccccc21 (stereo not drawn)"
observedvalue = 0.967

[[record]]
molecule = "Cc1cccc(Nc2ccncc2S(=O)(=O)NC(=O)NC(C)C)c1"
observedvalue = 1.02

[[record]]
molecule = "NC(Cc1ccc(F)cc1)C(=O)O (stereo not drawn)"
observedvalue = 1.04

[[record]]
molecule = "Nc1ccn(C2O[C@H](CO)[C@@H](O)[C@H]2O)c(=O)n1 (stereo partly drawn)"
observedvalue = 1.03

[[record]]
molecule = "CSc1ccc2c(c1)N(CCC1CCCCN1C)c1ccccc1S2 (stereo not drawn)"
observedvalue = 0.419

[[record]]
molecule = "Nc1cc(-c2ccncc2)c[nH]c1=O"
observedvalue = 0.977

[[record]]
molecule = "CC(CN1c2ccccc2Sc2ccccc21)N(C)C (stereo not drawn)"
observedvalue = 0.914

[[record]]
molecule = "CCCC(CCC)C(=O)O"
observedvalue = 0.963

[[record]]
molecule = "COc1cc(OC)c2c3c1C(=O)c1c(OC)cc(C)c4c(OC)cc(c-3c14)C(C)(C)C2=O"
observedvalue = 0.971

[[record]]
molecule = "CC(CN(C)C)CN1c2ccccc2Sc2ccccc21 (stereo not drawn)"
observedvalue = 0.988

[[record]]
molecule = "CCOC(=O)[C@H](CCc1ccccc1)N[C@@H](C)C(=O)N1Cc2ccccc2C[C@H]1C(=O)O"
observedvalue = 0.999

[[record]]
molecule = "CO[C@]12C[C@@H](COC(=O)c3cncc(Br)c3)CN(C)[C@@H]1Cc1cn(C)c3cccc2c13"
observedvalue = 1

[[record]]
molecule = "COc1cc(OC)c(OC)cc1C=O"
observedvalue = 0.989

[[record]]
molecule = "COc1cc([C@H]2Oc3cc([C@H]4Oc5cc(O)cc(O)c5C(=O)[C@@H]4O)ccc3O[C@@H]2CO)ccc1O"
observedvalue = 0.976

[[record]]
molecule = "COc1cc([C@@H]2c3cc4c(cc3[C@H](OC(C)=O)[C@H]3COC(=O)[C@@H]23)OCO4)cc(OC)c1OC"
observedvalue = 1.01

[[record]]
molecule = "COc1cc(S(C)=O)ccc1-c1nc2ncccc2[nH]1 (stereo not drawn)"
observedvalue = 0.999

[[record]]
molecule = "CC(CN1c2ccccc2Sc2cccnc21)N(C)C (stereo not drawn)"
observedvalue = 0.979

[[record]]
molecule = "COc1cc2c(cc1-c1cc3cc4ccoc4cc3oc1=O)OCO2"
observedvalue = 0.981

[[record]]
molecule = "CN1CC(CNC(=O)OCc2ccccc2)CC2c3cccc4c3c(cn4C)CC21 (stereo not drawn)"
observedvalue = 0.995

[[record]]
molecule = "CCC(=O)c1ccc2c(c1)N(CC(C)N(C)C)c1ccccc1S2 (stereo not drawn)"
observedvalue = 1.01

[[record]]
molecule = "O=c1cc(-c2ccccc2)oc2cc(O)c(O)c(O)c12"
observedvalue = 0.176

[[record]]
molecule = "NCCCCC(N)C(=O)NC(Cc1ccc(O)cc1)C(=O)NC(CCCCN)C(=O)O (stereo not drawn) (H-Lys-Tyr-Lys-OH; configuration not given here)"
observedvalue = 1.01

